System: HIV-191US005
test.summary: Anti-HIV efficacy in fresh human PBMCs (RT activity and p24 ELISA)
Assay type: cell-based, HIV-1
measurement.conditions: Human immunodeficiency virus 1, PBMC, 168 h, read-out: EC50/nM, Endpoint p24, seven days
recorded.metric: EC50 (nM)

1) COc1cccc(-c2ccc(NC(=O)C3=C(C(=O)O)CCC3)c(F)c2)c1 1970

---

test.summary: in vitro
measurement.conditions: African green monkey
recorded.metric: CC50

1. O=C(Nc1c(F)cc(-c2cccc(OC(F)(F)F)c2)cc1F)c1ccsc1C(=O)O > 10 µM

---

Consider the following compounds and their measured IC50 readings.
study.system: dihydroorotate dehydrogenase (DHODH) (Homo sapiens)
test.summary: DHODH inhibition, in vitro assay
Type: biochemical
measurement.conditions: Table 6; read-out: DHODH IC50/nM

compound	IC50
O=C(O)C1=C(C(=O)Nc2c(F)c(F)c(-c3cccc(OC(F)(F)F)c3)c(F)c2F)CCC1 [Compound 4]	< 20 nM
O=C(O)C1=C(C(=O)Nc2ccc(OCc3c(F)cccc3Cl)c(Cl)c2)CCC1 [Compound 3]	< 20 nM
O=C(Nc1c(F)c(F)c(-c2cccc(OC(F)(F)F)c2)c(F)c1F)c1ccsc1C(=O)O [Compound 1]	< 20 nM
O=C(Nc1c(F)cc(-c2cccc(OC(F)(F)F)c2)cc1F)c1ccsc1C(=O)O [Compound 17]	< 20 nM

---

Consider the following compounds and their measured IC50 readings.
study.system: dihydroorotate dehydrogenase (DHODH) (Homo sapiens, UniProt Q02127)
Sequence (Q02127 whole entry): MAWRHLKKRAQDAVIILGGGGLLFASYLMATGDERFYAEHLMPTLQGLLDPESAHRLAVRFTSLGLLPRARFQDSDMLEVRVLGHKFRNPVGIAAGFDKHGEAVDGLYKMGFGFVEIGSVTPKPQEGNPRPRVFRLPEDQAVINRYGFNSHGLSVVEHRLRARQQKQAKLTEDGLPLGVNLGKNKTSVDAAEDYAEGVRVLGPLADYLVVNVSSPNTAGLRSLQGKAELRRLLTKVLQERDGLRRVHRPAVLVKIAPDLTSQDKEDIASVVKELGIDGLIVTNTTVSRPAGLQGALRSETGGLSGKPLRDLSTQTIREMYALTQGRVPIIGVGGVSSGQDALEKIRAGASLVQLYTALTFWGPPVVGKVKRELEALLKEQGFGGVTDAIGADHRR
test.summary: DHODH inhibition, in vitro assay
Assay type: biochemical
measurement.conditions: Table 5; read-out: DHODH IC50/nM
recorded.metric: IC50

1) O=C(O)C1=C(C(=O)Nc2ccc(OCc3c(F)cccc3Cl)c(Cl)c2)CCC1 < 20 nM
2) O=C(Nc1c(F)c(F)c(-c2cccc(OC(F)(F)F)c2)c(F)c1F)c1ccsc1C(=O)O < 20 nM
3) O=C(O)C1=C(C(=O)Nc2c(F)c(F)c(-c3cccc(OC(F)(F)F)c3)c(F)c2F)CCC1 < 20 nM

---

study.system: dihydroorotate dehydrogenase (DHODH) (Homo sapiens)
test.summary: DHODH inhibition, in vitro assay
Type: biochemical
measurement.conditions: Table 10; read-out: DHODH IC50/nM
recorded.metric: IC50

compound	recorded.metric	recorded.result
O=C(Nc1c(F)c(F)c(-c2cccc(OC(F)(F)F)c2)c(F)c1F)c1ccsc1C(=O)O [Compound 1]	IC50	< 20 nM

---

study.system: dihydroorotate dehydrogenase (DHODH) (Homo sapiens)
test.summary: DHODH inhibition, in vitro assay
Type: biochemical
measurement.conditions: DHODH IC50/nM, Table 7
recorded.metric: IC50

1. O=C(O)C1=C(C(=O)Nc2c(F)c(F)c(-c3cccc(OC(F)(F)F)c3)c(F)c2F)CCC1 < 20 nM
2. O=C(O)C1=C(C(=O)Nc2ccc(OCc3c(F)cccc3Cl)c(Cl)c2)CCC1 < 20 nM

---

Test system: HBV
test.summary: Anti-HBV evaluation with HepG2 2.2.15 cells (extracellular HBV DNA, qPCR)
Type: cell-based
measurement.conditions: Hepatitis B virus, 144 h; HepG2 2.2.15 cells, HBV DNA, six days; read-out: Antiviral Activity EC50
pEC50: −log10 of the molar value.
recorded.metric: pEC50

1) O=C(Nc1c(F)c(F)c(-c2cccc(OC(F)(F)F)c2)c(F)c1F)c1ccsc1C(=O)O 5.32
2) O=C(Nc1c(F)cc(-c2cccc(OC(F)(F)F)c2)cc1F)c1ccsc1C(=O)O 5.19

---

System: HIV-191US005
test.summary: Anti-HIV efficacy in fresh human PBMCs (RT activity and p24 ELISA)
Type: cell-based, HIV-1
measurement.conditions: Human immunodeficiency virus 1, PBMC, 168 h, Endpoint p24, seven days, read-out: EC90/nM
Hi! Just check whether EC90 is below 3000 nM. Below gives rule met, equal or above gives rule not met.

1) CN(C)c1ccc(-c2ccc(NC(=O)C3=C(C(=O)O)CCC3)cc2Cl)cc1 rule not met
2) O=C(O)C1=C(C(=O)Nc2c(F)cc(-c3ccccc3Cl)cc2F)CSC1 rule met
3) O=C(O)C1=C(C(=O)Nc2c(F)c(F)c(-c3cccc(OC(F)(F)F)c3)c(F)c2F)CCC1 rule met
4) O=C(Nc1c(F)c(F)c(-c2cccc(OC(F)(F)F)c2)c(F)c1F)c1ccsc1C(=O)O rule met
5) COc1ccc(-c2ccc(NC(=O)C3=C(C(=O)O)CCC3)cc2Cl)cc1 rule not met
6) O=C(Nc1ccc(-c2ccccc2)cc1)Nc1ccccc1C(=O)O rule met
7) COc1cccc(-c2ccc(NC(=O)c3ccsc3C(=O)O)c(F)c2)c1 rule not met
8) O=C(O)C1=C(C(=O)Nc2ccc(OCc3c(F)cccc3Cl)c(Cl)c2)CCC1 rule met
9) O=C(O)C1=C(C(=O)Nc2c(F)c(F)c(-c3cccc(OC(F)(F)F)c3)c(F)c2F)CSC1 rule not met

---

study.system: dihydroorotate dehydrogenase (DHODH) (Homo sapiens, UniProt Q02127)
test.summary: DHODH inhibition, in vitro assay
Type: biochemical

compound	IC50
COc1cccc(-c2ccc(NC(=O)c3ccsc3C(=O)O)c(F)c2)c1 [Compound 24]	20 to 200 nM
O=C(Nc1c(F)c(F)c(-c2cccc(OC(F)(F)F)c2)c(F)c1F)c1ccsc1C(=O)O [Compound 1]	< 20 nM

---

study.system: dihydroorotate dehydrogenase (DHODH) (Homo sapiens)
test.summary: DHODH inhibition, in vitro assay
Type: biochemical
measurement.conditions: DHODH IC50/nM, Table 2
recorded.metric: IC50

1) O=C(O)C1=C(C(=O)Nc2c(F)c(F)c(-c3cccc(OC(F)(F)F)c3)c(F)c2F)CCC1 < 20 nM

---

test.summary: in vitro
measurement.conditions: African green monkey

compound	CC50
O=C(Nc1c(F)cc(-c2cccc(OC(F)(F)F)c2)cc1F)c1ccsc1C(=O)O [Compound 17]	> 10 µM

---

study.system: UniProtKB Q02127
test.summary: DHODH inhibition, in vitro assay
Assay type: biochemical
measurement.conditions: Table 2; read-out: DHODH IC50/nM
Consider the following compounds and their measured IC50 readings.
recorded.metric: IC50

compound	recorded.result
O=C(O)C1=C(C(=O)Nc2c(F)cc(-c3ccccc3Cl)cc2F)CSC1 [Compound 2]	< 20 nM
O=C(O)C1=C(C(=O)Nc2ccc(OCc3c(F)cccc3Cl)c(F)c2)CCC1 [Compound 21]	20 to 200 nM
O=C(O)C1=C(C(=O)Nc2ccc(OCc3c(F)cccc3Cl)c(Cl)c2)CCC1 [Compound 3]	< 20 nM
O=C(O)C1=C(C(=O)Nc2cc(Cl)c(OCc3c(F)cccc3Cl)c(Cl)c2)CCC1 [Compound 22]	20 to 200 nM

---

Test system: human PBMCs
test.summary: MTS cytotoxicity in human PBMCs
measurement.conditions: seven days
Consider the following molecules and their measured TC50/nM readings.
recorded.metric: TC50/nM

molecule	recorded.metric	recorded.result
COc1ccc(-c2ccc(NC(=O)C3=C(C(=O)O)CCC3)cc2Cl)cc1 [Compound 14]	TC50/nM	>100000 nM
COc1cccc(-c2ccc(NC(=O)c3ccsc3C(=O)O)c(F)c2)c1 [Compound 24]	TC50/nM	55800 nM
O=C(Nc1c(F)c(F)c(-c2cccc(OC(F)(F)F)c2)c(F)c1F)c1ccsc1C(=O)O [Compound 1]	TC50/nM	>100000 nM
CN(C)c1ccc(-c2ccc(NC(=O)C3=C(C(=O)O)CCC3)cc2Cl)cc1 [Compound 23]	TC50/nM	>100000 nM
O=C(O)C1=C(C(=O)Nc2c(F)cc(-c3ccccc3Cl)cc2F)CSC1 [Compound 2]	TC50/nM	>100000 nM
O=C(O)C1=C(C(=O)Nc2c(F)c(F)c(-c3cccc(OC(F)(F)F)c3)c(F)c2F)CCC1 [Compound 4]	TC50/nM	42400 nM
O=C(Nc1ccc(-c2ccccc2)cc1)Nc1ccccc1C(=O)O [Compound 7, 2-(3-biphenyl-4-ylureido)benzoic acid]	TC50/nM	>100000 nM

---

Test system: ET cell line (luc-ubi-neo/ET), Huh7
test.summary: CytoTox-1 cytotoxicity in ET cells
measurement.conditions: 24 h, cell unit μM
Consider the following compounds and their measured TC50 readings.
recorded.metric: TC50

1. O=C(O)C1=C(C(=O)Nc2c(F)cc(-c3ccccc3Cl)cc2F)CSC1 >100 µM
2. O=C(O)C1=C(C(=O)Nc2cc(Cl)c(OCc3c(F)cccc3Cl)c(Cl)c2)CCC1 >30 µM
3. O=C(Nc1c(F)c(F)c(-c2cccc(OC(F)(F)F)c2)c(F)c1F)c1ccsc1C(=O)O >100 µM
4. O=C(O)C1=C(C(=O)Nc2ccc(OCc3c(F)cccc3Cl)c(F)c2)CCC1 >30 µM

---

test.summary: in vitro
measurement.conditions: human
recorded.metric: CC50 at 7 days

compound	recorded.metric	recorded.result
O=C(Nc1c(F)c(F)c(-c2cccc(OC(F)(F)F)c2)c(F)c1F)c1ccsc1C(=O)O [Compound 1]	CC50 at 7 days	> 10 µM
